tested-target: T1, human recombinant CD117 (c-Kit) from Sino Biological (Catalog No. 11996-H08H) (human, UniProt P10721 26-524)
T1 construct: also called soluble antigen
T1 sequence (P10721 26-524 limits assumed): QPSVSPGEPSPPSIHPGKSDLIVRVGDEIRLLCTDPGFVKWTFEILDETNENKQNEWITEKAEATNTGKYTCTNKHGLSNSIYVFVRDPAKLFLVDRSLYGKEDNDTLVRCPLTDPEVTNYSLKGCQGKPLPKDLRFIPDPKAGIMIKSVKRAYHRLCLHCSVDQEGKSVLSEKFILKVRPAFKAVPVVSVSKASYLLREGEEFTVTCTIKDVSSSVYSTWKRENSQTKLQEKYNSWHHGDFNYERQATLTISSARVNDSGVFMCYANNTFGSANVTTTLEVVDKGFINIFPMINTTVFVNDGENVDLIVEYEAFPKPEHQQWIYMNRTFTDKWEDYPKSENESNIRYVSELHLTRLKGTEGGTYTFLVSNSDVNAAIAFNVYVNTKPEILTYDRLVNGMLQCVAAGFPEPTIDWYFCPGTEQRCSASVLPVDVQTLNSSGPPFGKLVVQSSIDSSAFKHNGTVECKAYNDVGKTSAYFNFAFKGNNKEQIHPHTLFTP
test-summary: BLI Octet, IgG on anti-human Fc sensor, soluble CD117, 1:1 fit
Experimental: IgG antibodies were immobilized on biosensors using suitable capture surfaces and binding of soluble antigen to immobilized antibodies was monitored by BLI (Octet). The resulting sensorgrams were analyzed using the supplied software (Fortebio). […] In the main experiment kinetic assays were performed by first capturing IgG using anti-human Fc biosensors. […] Dissociation rate constants (Kd) were calculated using the ForteBio Data Analysis software. […]
// reported kon per item

Recorded kon, per entry:
Inquiry: Let me know recorded kon for HC5 LC5 (antibody, V domains shown, IgG; also called VH5/VL5) VH: EVQLVQSGAEVKKPGESLKISCKGSGYTFTSYNMHWVRQMPGKGLEWMGVIYSGNADTSYNQKFKGQVTISADKSISTAYLQWSSLKASDTAMYYCARERDTRFGNWGQGTLVTVSA VL: DIQMTQSPSSLSASVGDRVTITCRASESVDIYGNAFMHWYQQKPGKAPKLLIYLASNLESGVPSRFSGSGSGTDFTLTISSLQPEDFATYYCQQANEEPYTFGGGTKLEIK , thanks.
Reply text: 626000 M⁻¹ s⁻¹

Inquiry: Let me know recorded kon for HC3 LC3 (antibody, V domains shown, IgG; also called VH3/VL3) VH: QVQLVQSGAEVRKPGASVKLSCKASGYTFTSYNMHWVRQAPGQGLEWMGVIYSGNGDTSYNQKFKGRVTLTRDTSTSTVYMELSSLRSEDTAVYYCARERDTRFGNWGQGTLVTVSA VL: DIVMTQSPSTLSASVGDRVTITCRASESVDIYGSSFMHWYQQKPGQPPKLLIYLASNLESGVPSRFSGSGSGTEFTLTISSLEADDVATYYCQQNNEDPYTFGGGTKLEIK , thanks.
Reply text: 658000 M⁻¹ s⁻¹

Others:
Inquiry: Let me know recorded kon for HC2 LC2 (antibody, V domains shown, IgG; also called VH2/VL2) VH: QVQLVESGAEVKKPGASVKLSCKASGYTFTSYNMHWVRQAPGQRLEWMGVIYSGNGDTSYNQKFKGRVTITVDKSASTAYMELSSLRSEDTAVYYCARERDTRFGNWGQGTLVTVSA VL: DIVMTQSPSTLSASVGDRVTITCRASESVDIYGNSFMHWYQQKPGKAPKLLIYLASNLESGVPSRFSGSGSGTEFTLTISSLQPDDFATYYCQQNNEDPYTFGQGTKLEIK , thanks.
Reply text: 449000 M⁻¹ s⁻¹
